Catalogue of folding stability dG unfold readings, one per entry.
assay: folding stability dG unfold from chymotrypsin proteolysis; higher = more stable
Report the figure in kcal/mol without appending any unit label.

| seq | unit_symbol | obs_value |
| --- | --- | --- |
| SAGGSAGGSAGGSSTITLDPANPTVVTDPATGVPTTGVSLAELEKLGMKPAGPDAYVVLSAGGSAGGSAGGS [r4_306_JUSTAS] | kcal/mol | 0.289 |

Input line: Look up folding stability dG unfold for this sequence: SAGGSAKTVTVEVTLEDGTKITVTVPEDMSEEERKALAQELAEELREKLRQLRELEKEGKEVRIEPSAGGSA [r15_704_TrROS_Hall]
Output line: 2.72

Input line: # folding stability dG unfold lookup, item SAGGSALADRIKEIARENGFEPESVQFDPGNGHLMISIEPPDGRGVVVQIDIDNNNLKIQIQPLDDSAGGSA [r15_561_TrROS]
Output line: 0.792

Input line: I would be grateful if you could share the reported folding stability dG unfold for SAGGSAGGSAGMLWIHDPESGTLVMLHPKPDGEVNVQVWQFDPDNGKPEIKTVPADNIEASAGGSAGGSAGG [r11_285_TrROS] .
Output line: 1.22

Input line: # get_value(readout='folding stability dG unfold', item= SAGGSAGGSMKRLPDGNLVVKLNNGSTWSVITIPVSPDESEEEIKQRLKELFGPNYPEYDISESAGGSAGGS [r12_300_JUSTAS] )
Output line: 0.917

Input line: Would you kindly share the measured folding stability dG unfold for SAGGSASRRLFVRTLPDDAVIVVEVPPGMSEEEAVEIAERRAEAAERVLRAAIEAERAGKAPVIPLSAGGSA [r15_704_TrMRF] ?
Output line: -0.0499

Input line: Could you share which folding stability dG unfold value was measured for SAGGSAGGSAGGGSMSITVPMSPEEGKKLAEEIKEKLKSEGNPVEVTVTIVSPTDPSLLSSAGGSAGGSAGG [r7_776_JUSTAS] ?
Output line: 0.167

Input line: Using the record for SAGGPNFTIKIEIEEIPNGVRVHKMTMELPDGHAWLMVMLYSPDPGKMFMIMVPVDPNGGIEDINIMPSAGG [r13_323_TrROS] , report its folding stability dG unfold.
Output line: 4.12

Input line: Please give the measured folding stability dG unfold for this sequence: SAGGSAGGSAGGAKTTTLGSESEEEIRAVAAKLPADSTITTNRPGGTSVITVSPNEIVTNSAGGSAGGSAGG [r7_560_JUSTAS]
Output line: 1.22

Input line: What does the record list as folding stability dG unfold for SAGGSAGGSAGGPPTTARITLPDGRTYTVPVPVDPTTGTVYVEDIRRAVAPNYTFTIELGSAGGSAGGSAGG [r7_492_TrMRF] ?
Output line: 0.981

Input line: I would be grateful if you could share the reported folding stability dG unfold for SAGGSAGGSAGPLSTVTETTTTVPLPNGEVLTVTTYTYPDLGVTTVTTTYPDGTVTTTTIPVSAGGSAGGSA [r18_88_JUSTAS] .
Output line: 2.54
